tested on: Saccharomyces cerevisiae; assay: protein stability index of tFT-peptide fusion (C-terminal peptide) (PSI (0-1 scale)); higher = more stable (slower turnover); conditions: genetic background: wild type; temperature: 37 C;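 also: PSI is a weighted mean of sequencing reads over stability bins, variants kept only with over 10 reads, mCherry proximal and sfGFP distal, peptide attached via GGGS linker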
For each of the sequences below, state its protein stability index.

>  <Record sequence>
NNQIQKKMYQTN

>  <Study target>
Saccharomyces cerevisiae

>  <protein stability index>
0.473

$$$$
>  <Record sequence>
GPGTWLFCFVRF

>  <Study target>
Saccharomyces cerevisiae

>  <protein stability index>
0.612

$$$$
>  <Record sequence>
CFFILSLMVVVI

>  <Study target>
Saccharomyces cerevisiae

>  <protein stability index>
0.183

$$$$
>  <Record sequence>
ASLVGGVLLVVV

>  <Study target>
Saccharomyces cerevisiae

>  <protein stability index>
0.502

$$$$
>  <Record sequence>
GVQFSVKWVKLG

>  <Study target>
Saccharomyces cerevisiae

>  <protein stability index>
0.18

$$$$

Record protein stability index for all entries; do not skip any.
1. DVVRWQRVRNYV
2. RAVLRFVMVWVL
3. LSLWLFRILSVR
4. LFVVFVLLTFFV
5. HRFCAPSLSASD
6. FKYRVPLVGVVK
7. CYKYTYVKNNMI
8. CFCSFQFVRLWV

Response:
[0.573, 0.434, 0.491, 0.29, 0.696, 0.39, 0.555, 0.58]

Record protein stability index for all entries; do not skip any.
1. CFFLSFNVFRLF
2. TTATLSFAICAV
3. NLVCLDPFLVFV

Response:
1. 0.113
2. 0.452
3. 0.583

###

test system: Saccharomyces cerevisiae; assay: protein stability index of tFT-peptide fusion (C-terminal peptide) (PSI (0-1 scale)); higher = more stable (slower turnover); details: genetic background: wild type; temperature: 30 C
Value kind: protein stability index
Answers are plain numbers.

Completed entries (count: 5):
>  <Record sequence>
SSVRPHPAPPHT

>  <protein stability index>
0.701

$$$$
>  <Record sequence>
VVRMFRLGNGNF

>  <protein stability index>
0.7

$$$$
>  <Record sequence>
GKTNKALDRISI

>  <protein stability index>
0.679

$$$$
>  <Record sequence>
FFERRLGYYSRM

>  <protein stability index>
0.85

$$$$
>  <Record sequence>
KVGWGMRGVRGG

>  <protein stability index>
0.66

$$$$

Record protein stability index for all entries; do not skip any.
1. RFALSCITPCIL
2. PPPPSPALPTFP
3. DHHGGTEPHRVP
4. GVGREGEIGGGG
5. LRPLPPRHPPAP
6. NWAIEIRSVKIV
7. LSPGRPPRPPRR

Response:
[0.661, 0.715, 0.708, 0.544, 0.624, 0.261, 0.702]

Record protein stability index for all entries; do not skip any.
1. SDVLVVWVFFCR
2. PSSSPPLLPPPA

Response:
1: 0.405; 2: 0.638

Record protein stability index for all entries; do not skip any.
1. EMYEKLKSYIVK
2. PSELGAGNVMGG
3. VGCTSFWLAILR
4. PPPPLLPPPIPL

Response:
[0.685, 0.699, 0.56, 0.685]

Record protein stability index for all entries; do not skip any.
1. DPLLYLCLGSQC
2. HVTFPLRRTFRR
3. SSLVRFDSSAPL

Response:
1: 0.676; 2: 0.697; 3: 0.665

Record protein stability index for all entries; do not skip any.
1. PLRPGILLNKLP
2. LFPLHLPSPPPG
3. GGWCWGWGPGSG
4. GHEKAGPSIGFL
5. EKNEREEAESGG
6. SVARGGGVVEWG
7. KESKIKDKNSII
8. DIRFSAARRPTG

Response:
0.646
0.721
0.687
0.644
0.714
0.705
0.734
0.663

Record protein stability index for all entries; do not skip any.
1. SSSCRPVSSAIV
2. EVVFHVFLVGLV
3. DAGLCGCCGVIG
4. VAGGFWCWGMVG
5. KKKRKKNRKTNK

Response:
1. 0.651
2. 0.362
3. 0.666
4. 0.464
5. 0.67

Record protein stability index for all entries; do not skip any.
1. FSLLTWPFVFLV
2. LRVVWNLSSRAI
3. SGVFARIKRTVV
4. LGGGGKNGSERV
5. LSGVLFSLIRFY
6. PPPPPSFSFPPT
7. KTYKNKTQQNAS

Response:
[0.0871, 0.636, 0.489, 0.696, 0.383, 0.706, 0.746]

Record protein stability index for all entries; do not skip any.
1. LRHWKALVTYLL
2. SCVSDAKMGGLG
3. VKSTRRHGRPQS
4. LPPPPPCPPSPL
5. GGRSSGRLMGKE
6. VGGLGWCWVCMA
7. PGGSVYKPLATA
8. IVPIVDMMIIRK

Response:
0.566
0.655
0.723
0.671
0.712
0.25
0.644
0.653

###

test system: Saccharomyces cerevisiae; test: protein stability index of tFT-peptide fusion (C-terminal peptide) (PSI (0-1 scale)); higher = more stable (slower turnover); settings: genetic background: wild type; temperature: 37 C
For each of the sequences below, state its protein stability index.
Give bare numbers.

>  <Record sequence>
VSLIYKTIKNRV

>  <protein stability index>
0.601

$$$$
>  <Record sequence>
FWHGRCPGLYLV

>  <protein stability index>
0.304

$$$$

Here is the next item to consider.
Prompt: Dear colleague, I am looking for the recorded protein stability index of the following sequence: "VDVWRWRGLRVG"
Response: 0.599

###

test system: Saccharomyces cerevisiae; assay: protein stability index of tFT-peptide fusion (C-terminal peptide) (PSI (0-1 scale)); higher = more stable (slower turnover); details: genetic background: wild type; temperature: 30 C
Value kind: protein stability index
One number for each entry.

>  <Record sequence>
YLFFSCIFTFSC

>  <Study target>
Saccharomyces cerevisiae

>  <Value kind>
protein stability index

>  <Value measured>
0.211

$$$$

Record protein stability index for all entries; do not skip any.
1. AFRSPLLMLLVL
2. MTLYSFSSALLA

Response:
1. 0.262
2. 0.276

###

system: Saccharomyces cerevisiae; assay: protein stability index of tFT-peptide fusion (C-terminal peptide) (PSI (0-1 scale)); higher = more stable (slower turnover); conditions: genetic background: wild type; temperature: 30 C
Tick yes (1) if protein stability index is 0.7 or greater. Tick no (0) if protein stability index is less than 0.7.

>  <Record sequence>
FGGGGGGVGLAV

>  <Class>
no (0)

$$$$
>  <Record sequence>
PALSVPPLLPPP

>  <Class>
no (0)

$$$$
>  <Record sequence>
PSPFHSFYLRLI

>  <Class>
no (0)

$$$$
>  <Record sequence>
VLFSRFVFLGVL

>  <Class>
no (0)

$$$$
>  <Record sequence>
PPFPKFPRPRLH

>  <Class>
yes (1)

$$$$
>  <Record sequence>
KKKENRQKREIQ

>  <Class>
no (0)

$$$$

Prompt: Entry "LVIVFDLGNMLH" : is its protein stability index no less than 0.7?
Response: no (0)

Prompt: Entry "VICSLFRYIMRL" : is its protein stability index no less than 0.7?
Response: no (0)

Prompt: Entry "EKHRRYAITKFI" : is its protein stability index no less than 0.7?
Response: no (0)

Prompt: Entry "CIPVTGLHFRVI" : is its protein stability index no less than 0.7?
Response: no (0)

Prompt: Entry "FPPCSPPPPAPL" : is its protein stability index no less than 0.7?
Response: no (0)

Prompt: Entry "TGMRRLPGEVCV" : is its protein stability index no less than 0.7?
Response: no (0)

Prompt: Entry "PRPPYPRPPPPP" : is its protein stability index no less than 0.7?
Response: yes (1)

Prompt: Entry "ELCPFLPLFLTY" : is its protein stability index no less than 0.7?
Response: no (0)

###

tested on: Saccharomyces cerevisiae; test: protein stability index of tFT-peptide fusion (C-terminal peptide) (PSI (0-1 scale)); higher = more stable (slower turnover); details: genetic background: doa10 deletion; temperature: 30 C
Note: every record was labeled by where its protein stability index sits among bottom bin = under 0.2, middle bin = from 0.2 up to 0.4, top bin = 0.4 and over

>  <Record sequence>
WCVRRVRFVMGC

>  <Study target>
Saccharomyces cerevisiae

>  <Class>
middle bin

$$$$

Prompt: Bin? "KSRLFCFVYFLL"
Response: bottom bin

Prompt: Bin? "RIIKIRAISINL"
Response: top bin

Prompt: Bin? "VGVVVAIGLVRM"
Response: middle bin

Prompt: Bin? "ESCIFLMWLTVL"
Response: bottom bin

###

test system: Saccharomyces cerevisiae; assay: protein stability index of tFT-peptide fusion (C-terminal peptide) (PSI (0-1 scale)); higher = more stable (slower turnover); conditions: genetic background: das1 deletion; temperature: 30 C
Note: every record was labeled by where its protein stability index sits among lo (below 0.3), mid (0.3 to below 0.6), hi (0.6 or more)

Here are 3 sequences together with their reported answers.
>  <Record sequence>
PPPLPFPTPPPS

>  <Class>
hi

$$$$
>  <Record sequence>
GGICVVAYWRLA

>  <Class>
mid

$$$$
>  <Record sequence>
CFFILSLMVVVI

>  <Class>
lo

$$$$

Prompt: Bin? "HWVRLSSLAFVS"
Response: lo

Prompt: Bin? "VGVSCVVCVCGV"
Response: lo
